Biological target: hGLP1R (Homo sapiens)
Construct: expressed in transfected cells; host or cells: HEK-293 cells carrying a CRE-luciferase reporter gene
Sequence (P43220 24-463): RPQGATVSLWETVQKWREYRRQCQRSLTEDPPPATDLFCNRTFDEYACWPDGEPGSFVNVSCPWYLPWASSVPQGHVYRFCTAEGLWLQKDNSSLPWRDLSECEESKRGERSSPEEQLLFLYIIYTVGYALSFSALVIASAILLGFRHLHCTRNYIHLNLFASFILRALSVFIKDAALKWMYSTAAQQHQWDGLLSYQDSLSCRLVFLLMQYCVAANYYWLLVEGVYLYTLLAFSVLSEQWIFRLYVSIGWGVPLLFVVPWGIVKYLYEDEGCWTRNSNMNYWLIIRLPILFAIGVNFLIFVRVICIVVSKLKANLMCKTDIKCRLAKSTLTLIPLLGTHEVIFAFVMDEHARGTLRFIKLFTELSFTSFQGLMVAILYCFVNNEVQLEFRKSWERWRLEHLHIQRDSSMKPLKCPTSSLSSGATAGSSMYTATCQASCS
Assay: hGLP1R CreLuc reporter gene assay in 0.5% and 100% plasma
Type: cell-based
Details: CreLuc reporter gene assay, 0.5% human plasma; read-out: hGLP1R 0.5% hP
pEC50: −log10 of the molar value. Starred links: 1 amine or outer side, 2 acyl side, 3 side chain; linkers in the order of their positions; H or OH if unused. Non-standard residues stand in square brackets, D forms with d. Groups on a side chain read outwards from the residue. No end group written: not given here. *: point of attachment. C20 diacid = O=C(O)CCCCCCCCCCCCCCCCCCC(=O)*; C18 diacid = O=C(O)CCCCCCCCCCCCCCCCC(=O)*; γGlu = O=C(O)[C@H](CCC(=O)[*:2])N[*:1]; εLys = N[C@@H](CCCCN[*:1])C(=O)[*:2]; NMeQ = CN[C@@H](CCC(N)=O)C(=O)O; AEEA = NCCOCCOCC(=O)O; Aib = CC(C)(N)C(=O)O; Ahx = NCCCCCC(=O)O
pEC50 values for the substances below.
experimental readout: pEC50

{"substance": "H-Y[Aib]EGTFTSDYSI[Aib]LEKQAQ[Aib]AFVEWLIK([εLys-γGlu-γGlu-γGlu-γGlu-γGlu-γGlu-C20 diacid])GGPSSGES[Aib]RHYYNWLTRQRY-NH2 [Compound 49]", "target": "hGLP1R (Homo sapiens)", "experimental readout": "pEC50", "reported value": 9.92}
{"substance": "H-Y[Aib]EGTFTSDYSI[Aib]LEKQAQ[Aib]AFVQWLIK([εLys-γGlu-γGlu-γGlu-γGlu-γGlu-γGlu-C20 diacid])GGPRYYASLRHYYNWLTRQRY-NH2 [Compound 14]", "target": "hGLP1R (Homo sapiens)", "experimental readout": "pEC50", "reported value": 9.40}
{"substance": "H-Y[Aib]EGTFTSDYSI[Aib]LEKQAQ[Aib]AFVEWLIK([εLys-γGlu-γGlu-γGlu-γGlu-γGlu-γGlu-C20 diacid])GGPSEGQSLRHYYNWLTRQRY-NH2 [Compound 227]", "target": "hGLP1R (Homo sapiens)", "experimental readout": "pEC50", "reported value": 9.89}
{"substance": "H-Y[Aib]EGTFTSDYSI[Aib]LEKQAQ[Aib]AFVEWLIK([εLys-γGlu-γGlu-γGlu-γGlu-γGlu-γGlu-C20 diacid])GGPSSPQSLRHYYNWLTRQRY-NH2 [Compound 41]", "target": "hGLP1R (Homo sapiens)", "experimental readout": "pEC50", "reported value": 10.22}
{"substance": "H-Y[Aib]EGTFTSDYSI[Aib]LEKQAQ[Aib]AFVEWLIK([Ahx-γGlu-γGlu-γGlu-γGlu-γGlu-C18 diacid])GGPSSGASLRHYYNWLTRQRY-NH2 [Compound 260]", "target": "hGLP1R (Homo sapiens)", "experimental readout": "pEC50", "reported value": 9.89}
{"substance": "Y[Aib]EGTFTSDYSI[Aib]LEKQAQ[Aib]EFVEWLIK([AEEA-AEEA-γGlu-γGlu-γGlu-C18 diacid])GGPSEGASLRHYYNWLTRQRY-NH2 [Compound 284]", "target": "hGLP1R (Homo sapiens)", "experimental readout": "pEC50", "reported value": 9.29}
{"substance": "H-Y[Aib]EGTFTSDYSI[Aib]LEKQAQ[Aib]EFVEWLIK([AEEA-AEEA-γGlu-γGlu-γGlu-C18 diacid])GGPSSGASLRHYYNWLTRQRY-NH2 [Compound 171]", "target": "hGLP1R (Homo sapiens)", "experimental readout": "pEC50", "reported value": 9.57}
{"substance": "H-Y[Aib]EGTFTSDYSI[Aib]LEKQAQ[Aib]AFVEWLIK([εLys-γGlu-γGlu-γGlu-γGlu-γGlu-γGlu-C20 diacid])GGPSSGASLLHYYNWLTRQRY-NH2 [Compound 210]", "target": "hGLP1R (Homo sapiens)", "experimental readout": "pEC50", "reported value": 9.72}
{"substance": "H-Y[Aib]EGTFTSDYSI[Aib]LEKQAQ[Aib]AFVQWLIK([εLys-γGlu-γGlu-γGlu-γGlu-γGlu-γGlu-C20 diacid])GGPSEGASLRHYYNWLTR[NMeQ]RY-NH2 [Compound 115]", "target": "hGLP1R (Homo sapiens)", "experimental readout": "pEC50", "reported value": 9.92}
{"substance": "H-Y[Aib]EGTFTSDYSI[Aib]LEKQAQ[Aib]AFVQWLIK([γGlu-γGlu-γGlu-γGlu-γGlu-C20 diacid])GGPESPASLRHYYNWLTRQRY-NH2 [Compound 11]", "target": "hGLP1R (Homo sapiens)", "experimental readout": "pEC50", "reported value": 9.96}
{"substance": "H-Y[Aib]EGTFTSDYSI[Aib]LEKQAQ[Aib]AFVQWLIK([AEEA-AEEA-Glu-Glu-Glu-Glu-C18 diacid])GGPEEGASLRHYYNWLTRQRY-NH2 [Compound 177]", "target": "hGLP1R (Homo sapiens)", "experimental readout": "pEC50", "reported value": 9.80}
{"substance": "Y[Aib]EGTFTSDYSI[Aib]LEKQAE[Aib]AFVEWLIK([AEEA-AEEA-γGlu-γGlu-γGlu-γGlu-C18 diacid])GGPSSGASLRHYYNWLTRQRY-NH2 [Compound 150]", "target": "hGLP1R (Homo sapiens)", "experimental readout": "pEC50", "reported value": 9.51}
{"substance": "H-Y[Aib]EGTFTSDYSI[Aib]LEGQAQ[Aib]AFVEWLIK([εLys-γGlu-γGlu-γGlu-γGlu-γGlu-γGlu-C20 diacid])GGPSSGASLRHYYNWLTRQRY-NH2 [Compound 99]", "target": "hGLP1R (Homo sapiens)", "experimental readout": "pEC50", "reported value": 9.39}
{"substance": "H-Y[Aib]EGTFTSDYSI[Aib]LEKQAQ[Aib]AFVEWLIK([εLys-γGlu-γGlu-γGlu-γGlu-γGlu-γGlu-C20 diacid])GGPSSGASLRHYYNL[Aib]TRQRY-NH2 [Compound 79]", "target": "hGLP1R (Homo sapiens)", "experimental readout": "pEC50", "reported value": 9.96}
